MEASURED ON: SARS-COV-2 M^pro (authentic N- and C-termini) (Severe acute respiratory syndrome coronavirus 2, UniProt P0DTD1)
MEASUREMENT NOTES: biochemical
Type: biochemical
PROTOCOL CONDITIONS: Table 3, column b (footnote not given); read-out: Kiapp (nM)^b
ENDPOINT: Ki (nM)
Give the value, in units of nM, as a plain number.

Note down Ki recorded for CNC(=O)CCCn1c(-c2cncc3ccccc23)nc2cccc(C(=O)NCc3ccc4ccccc4c3)c21
42.5

Note down Ki recorded for CCC[C@H](NC(=O)c1cccc2nc(-c3cncc4ccccc34)n(CCCC(=O)NC)c12)c1ccc(C(F)(F)F)cc1
6.5

Note down Ki recorded for CCC[C@H](NC(=O)c1cccc2nc(-c3cncc4ccccc34)n([C@H]3C[C@H](C(=O)NC)C3)c12)c1ccc(OC(F)F)cc1
15.7

----------
MEASURED ON: Human Cathepsin B (Homo sapiens)
Construct: purchased BPS Bioscience 79590
MEASUREMENT NOTES: Cathepsin B assay; also: test concentration or dose not given here
Type: biochemical
Assign Human Cathepsin B, Fractional Remaining Activity to each entry below.
// return a plain number; no unit text

Note down Human Cathepsin B, Fractional Remaining Activity recorded for CCCC(NC(=O)c1cccc2nc(-c3cncc4ccccc34)n([C@H]3C[C@H](C(=O)NC)C3)c12)c1ccc(C(F)(F)F)cc1 (stereo partly drawn)
0.91

Note down Human Cathepsin B, Fractional Remaining Activity recorded for CCC[C@H](NC(=O)c1cccc2nc(-c3cncc4ccccc34)n([C@H]3C[C@H](C(=O)NC)C3)c12)c1cccc(C(F)(F)F)c1
1.07

Note down Human Cathepsin B, Fractional Remaining Activity recorded for CCC[C@H](NC(=O)c1cccc2nc(-c3cncc4ccccc34)n([C@H]3C[C@H](C(=O)NC)C3)c12)c1ccc(OC(F)F)cc1
0.95

Note down Human Cathepsin B, Fractional Remaining Activity recorded for COc1cc(-c2cccc3[nH]ncc23)cc(C=O)c1OCC(=O)N1CCC(Oc2cccc(C(=O)N(C)C)c2)C1 (stereo not drawn)
0.92

Note down Human Cathepsin B, Fractional Remaining Activity recorded for COc1cc(-c2cccc3[nH]ncc23)cc(C=O)c1OCC(=O)N(C)C
0.97

Note down Human Cathepsin B, Fractional Remaining Activity recorded for CCC[C@H](NC(=O)c1cccc2nc(-c3cncc4ccccc34)n(C3CCC3)c12)c1ccc(C(F)(F)F)cc1
0.94

----------
MEASURED ON: SARS-COV-2 M^pro-His6 (Severe acute respiratory syndrome coronavirus 2)
MEASUREMENT NOTES: biochemical
Assay type: biochemical
PROTOCOL CONDITIONS: Table 3, column a (footnote not given); read-out: Kiapp (nM)^a
ENDPOINT: Ki (nM)
Give the value, in units of nM, as a plain number.

Note down Ki recorded for CNC(=O)CCCn1c(-c2cncc3ccccc23)nc2cccc(C(=O)NCc3ccc4ccccc4c3)c21
51.3

Note down Ki recorded for CCC[C@H](NC(=O)c1cccc2nc(-c3cncc4ccccc34)n(CCCC(=O)NC)c12)c1ccc(C(F)(F)F)cc1
5.6

Note down Ki recorded for CCC[C@H](NC(=O)c1cccc2nc(-c3cncc4ccccc34)n([C@H]3C[C@H](C(=O)NC)C3)c12)c1ccc(OC(F)F)cc1
13.7

Note down Ki recorded for CNC(=O)[C@H]1C[C@H](n2c(-c3cncc4ccccc34)nc3cccc(C(=O)N[C@@H](C)c4ccccc4)c32)C1
571
